Each item that follows carries a reported BHET released.
experiment: BHET released, HPLC; higher = more BHET released; extreme values may be limits of the assay; details: PET substrate: cryPow; 60 °C; pH 4.5; 24 h
endpoint: BHET released

construct-sequence	endpoint	reading
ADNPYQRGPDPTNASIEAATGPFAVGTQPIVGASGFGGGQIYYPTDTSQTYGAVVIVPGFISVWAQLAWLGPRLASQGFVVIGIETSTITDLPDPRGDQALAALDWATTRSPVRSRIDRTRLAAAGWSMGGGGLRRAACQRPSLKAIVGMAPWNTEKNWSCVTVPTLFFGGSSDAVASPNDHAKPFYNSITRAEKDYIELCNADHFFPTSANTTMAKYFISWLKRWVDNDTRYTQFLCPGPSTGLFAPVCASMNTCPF [CaPETaseM9]	BHET released	0.00607 mM
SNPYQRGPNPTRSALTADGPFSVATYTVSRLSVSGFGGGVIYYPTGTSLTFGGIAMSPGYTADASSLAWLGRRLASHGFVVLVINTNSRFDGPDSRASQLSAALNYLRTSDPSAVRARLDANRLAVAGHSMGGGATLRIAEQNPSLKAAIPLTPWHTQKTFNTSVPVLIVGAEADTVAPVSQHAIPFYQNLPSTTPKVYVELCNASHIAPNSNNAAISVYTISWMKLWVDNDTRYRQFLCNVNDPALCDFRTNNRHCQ [LCC-ICCG DAQI]	BHET released	0 mM
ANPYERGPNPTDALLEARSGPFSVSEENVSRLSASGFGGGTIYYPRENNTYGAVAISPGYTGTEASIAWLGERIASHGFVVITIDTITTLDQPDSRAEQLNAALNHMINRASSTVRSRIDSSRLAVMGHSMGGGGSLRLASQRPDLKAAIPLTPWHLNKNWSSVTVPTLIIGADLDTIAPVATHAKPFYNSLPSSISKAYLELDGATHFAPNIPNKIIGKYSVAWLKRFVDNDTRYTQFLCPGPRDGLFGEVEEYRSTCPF [TfCut2]	BHET released	0 mM

* * *

test: terephthalic acid (TPA) released, HPLC; higher = more TPA released; extreme values may be limits of the assay; details: PET substrate: aFilm; 70 °C; pH 4.5; 24 h
Recorded terephthalic acid, one value per entry.

construct-sequence	terephthalic acid
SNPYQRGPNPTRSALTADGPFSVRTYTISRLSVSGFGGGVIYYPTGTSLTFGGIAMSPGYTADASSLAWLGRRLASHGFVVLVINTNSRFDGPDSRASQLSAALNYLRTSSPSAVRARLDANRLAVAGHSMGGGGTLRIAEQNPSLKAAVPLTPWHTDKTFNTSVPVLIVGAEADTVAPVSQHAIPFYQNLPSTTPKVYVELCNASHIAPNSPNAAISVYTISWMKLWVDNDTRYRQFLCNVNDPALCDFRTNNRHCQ [LCC-ICCG RIP]	0.00741 mM
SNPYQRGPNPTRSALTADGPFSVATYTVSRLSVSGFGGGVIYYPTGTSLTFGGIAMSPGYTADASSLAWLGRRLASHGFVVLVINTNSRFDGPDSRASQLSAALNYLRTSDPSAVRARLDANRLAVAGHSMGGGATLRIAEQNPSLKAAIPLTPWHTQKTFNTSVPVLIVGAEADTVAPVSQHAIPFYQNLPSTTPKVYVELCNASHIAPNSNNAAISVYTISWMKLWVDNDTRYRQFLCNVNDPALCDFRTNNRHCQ [LCC-ICCG DAQI]	0 mM
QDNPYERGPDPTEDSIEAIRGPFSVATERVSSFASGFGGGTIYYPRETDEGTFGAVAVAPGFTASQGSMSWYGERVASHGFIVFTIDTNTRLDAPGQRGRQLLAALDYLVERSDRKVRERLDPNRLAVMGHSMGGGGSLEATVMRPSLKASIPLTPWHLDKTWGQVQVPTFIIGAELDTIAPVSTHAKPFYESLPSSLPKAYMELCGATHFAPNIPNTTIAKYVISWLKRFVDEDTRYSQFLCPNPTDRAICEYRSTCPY [Cut190*SS]	0 mM
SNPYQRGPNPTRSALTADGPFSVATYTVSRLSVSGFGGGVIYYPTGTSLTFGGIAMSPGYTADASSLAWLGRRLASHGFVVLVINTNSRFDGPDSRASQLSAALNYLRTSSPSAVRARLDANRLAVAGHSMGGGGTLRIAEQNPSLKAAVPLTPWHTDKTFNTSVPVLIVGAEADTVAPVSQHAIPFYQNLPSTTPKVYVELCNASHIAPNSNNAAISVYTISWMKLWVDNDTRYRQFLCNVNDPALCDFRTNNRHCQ [LCC-ICCG]	0 mM

* * *

assay: terephthalic acid (TPA) released, HPLC; higher = more TPA released; extreme values may be limits of the assay; conditions: PET substrate: aFilm; 70 °C; pH 5.5; 24 h

construct-sequence	measure-unit	terephthalic acid
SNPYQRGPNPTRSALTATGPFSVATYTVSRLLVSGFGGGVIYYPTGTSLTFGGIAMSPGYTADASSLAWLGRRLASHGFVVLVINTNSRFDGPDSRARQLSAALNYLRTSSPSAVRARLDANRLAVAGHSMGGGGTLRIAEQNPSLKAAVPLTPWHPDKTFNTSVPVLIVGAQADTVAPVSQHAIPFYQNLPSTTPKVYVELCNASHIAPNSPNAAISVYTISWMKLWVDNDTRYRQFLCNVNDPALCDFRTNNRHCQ [LCC-ICCG I6M]	mM	0.275
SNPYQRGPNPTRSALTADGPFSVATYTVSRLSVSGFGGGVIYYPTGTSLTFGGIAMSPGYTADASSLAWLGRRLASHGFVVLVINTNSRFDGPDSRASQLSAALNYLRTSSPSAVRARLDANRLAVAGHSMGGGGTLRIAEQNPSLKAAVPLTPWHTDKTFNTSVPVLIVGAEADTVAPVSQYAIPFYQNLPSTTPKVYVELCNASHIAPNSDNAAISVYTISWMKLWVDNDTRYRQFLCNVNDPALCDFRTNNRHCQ [LCC-A2]	mM	0.455
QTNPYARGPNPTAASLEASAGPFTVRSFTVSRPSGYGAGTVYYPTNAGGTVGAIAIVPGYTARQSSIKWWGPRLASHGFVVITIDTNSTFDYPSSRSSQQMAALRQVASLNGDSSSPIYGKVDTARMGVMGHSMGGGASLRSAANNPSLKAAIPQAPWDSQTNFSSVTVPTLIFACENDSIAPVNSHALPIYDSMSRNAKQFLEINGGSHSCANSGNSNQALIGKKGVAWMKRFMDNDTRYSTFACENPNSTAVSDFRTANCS [DuraPETase]	mM	0
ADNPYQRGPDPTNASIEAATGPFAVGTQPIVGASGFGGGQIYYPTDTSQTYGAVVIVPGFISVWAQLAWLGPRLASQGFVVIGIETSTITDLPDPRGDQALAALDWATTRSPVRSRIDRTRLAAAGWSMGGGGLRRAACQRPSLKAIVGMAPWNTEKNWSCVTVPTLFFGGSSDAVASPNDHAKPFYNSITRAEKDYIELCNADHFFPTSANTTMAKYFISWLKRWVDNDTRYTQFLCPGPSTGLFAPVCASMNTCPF [CaPETaseM9]	mM	0

* * *

experiment: terephthalic acid (TPA) released, HPLC; higher = more TPA released; extreme values may be limits of the assay; settings: PET substrate: cryPow; 70 °C; pH 8.5; 24 h
# reported terephthalic acid; entries follow
endpoint: terephthalic acid (mM)

construct-sequence	endpoint	reading
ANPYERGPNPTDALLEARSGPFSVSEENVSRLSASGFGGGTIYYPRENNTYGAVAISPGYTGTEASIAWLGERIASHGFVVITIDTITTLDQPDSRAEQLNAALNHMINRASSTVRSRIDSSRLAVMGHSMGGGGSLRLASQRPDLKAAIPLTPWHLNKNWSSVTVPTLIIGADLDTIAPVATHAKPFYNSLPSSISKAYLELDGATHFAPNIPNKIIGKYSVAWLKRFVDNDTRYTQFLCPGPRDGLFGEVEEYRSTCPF [TfCut2]	terephthalic acid	0
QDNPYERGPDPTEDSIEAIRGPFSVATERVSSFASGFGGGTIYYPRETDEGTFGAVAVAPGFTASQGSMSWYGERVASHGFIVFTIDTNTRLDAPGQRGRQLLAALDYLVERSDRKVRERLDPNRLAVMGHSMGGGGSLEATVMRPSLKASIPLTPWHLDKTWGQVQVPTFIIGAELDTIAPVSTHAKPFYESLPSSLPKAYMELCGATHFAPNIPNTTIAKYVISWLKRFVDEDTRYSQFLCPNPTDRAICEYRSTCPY [Cut190*SS]	terephthalic acid	0.013
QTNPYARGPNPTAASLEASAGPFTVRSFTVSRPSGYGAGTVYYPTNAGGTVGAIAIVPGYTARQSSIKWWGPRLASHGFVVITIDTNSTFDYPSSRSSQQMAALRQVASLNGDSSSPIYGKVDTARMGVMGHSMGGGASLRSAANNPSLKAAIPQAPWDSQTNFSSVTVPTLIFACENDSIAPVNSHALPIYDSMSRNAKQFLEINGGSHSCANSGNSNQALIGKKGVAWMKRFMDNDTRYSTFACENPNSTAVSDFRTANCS [DuraPETase]	terephthalic acid	0.0557
